# Target Desc: anti-TNFα antibody-Fab (IgG-Fab derived from anti-TNFα monoclonal antibody, adalimumab) (Homo sapiens, UniProt P01834+P01857)
# Construct: cleaving a humanized monoclonal IgG formulation as a starting material into a Fab fragment and an Fc fragment by papain; purchased
# Protocol Summary: Biacore 3000 surface plasmon resonance, affinity of SpG-β1 mutants for immobilized IgG-Fab
# Format: binding
# Condition Summary: Table 2, Example 3; GST-fused one-domain peptide; 25° C., pH 7.4
Where no end group is shown, it is not given here.
Quick reference: kon of the listed items.
Metric: kon (s/M)

Substance	Unit Of Measurement	Numeric Readout
K13T/E19I/K28N/F30L/Y33F: GST-fused one-domain SpG-β1 mutant, amino acid SEQ ID NO: 53 (TTYKLILNGKTLTGETTTIAVDAATAENVLKQFANDNGVDGEWTYDDATKTFTVTE; also: GST-fused)	s/M	88000
K13T/E19I/V21D/T25M/F30L/Y33F/N35F/D47A: GST-fused one-domain SpG-β1 mutant, amino acid SEQ ID NO: 55 (TTYKLILNGKTLTGETTTIADDAAMAEKVLKQFAFDNGVDGEWTYDAATKTFTVTE; also: GST-fused)	s/M	104000
K13S/E19V/F30L/Y33F: GST-fused one-domain SpG-β1 mutant, amino acid SEQ ID NO: 81 (TTYKLILNGKTLSGETTTVAVDAATAEKVLKQFANDNGVDGEWTYDDATKTFTVTE; also: GST-fused, end not given here)	s/M	98400
K13T/E19I/K28I/F30L/Y33F/E42Q/D47Y: GST-fused one-domain SpG-β1 mutant, amino acid SEQ ID NO: 59 (TTYKLILNGKTLTGETTTIAVDAATAEIVLKQFANDNGVDGQWTYDYATKTFTVTE; also: GST-fused)	s/M	91000
